# Test system: Pythium ultimum
# assay remarks: Mycelia Inhibition
# Assay type: cell-based
# test context: mycelial inhibition, 25° C., 24 hours
parameter measured: Pythium ultimum, micrograms/cm^2 for 99% control of the fungus

ClCC1=NC2=S(O1)SN=C2Cl (centres unmarked)
0.12 micrograms/cm^2
Oc1ccccc1C1=NC2=S(O1)SN=C2Cl (centres unmarked)
> 1.7 micrograms/cm^2
FC(F)(F)c1cccc(C2=NC3=S(O2)SN=C3Cl)c1 (centres unmarked)
> 1.7 micrograms/cm^2
ClC1=NSS2=C1N=C(CSCc1ccc(Cl)cc1)O2 (centres unmarked)
> 1.7 micrograms/cm^2
ClC1=NSS2=C1N=C(CSc1ccc(Cl)cc1)O2 (centres unmarked)
> 1.7 micrograms/cm^2

So the reported Pythium ultimum, micrograms/cm^2 for 99% control of the fungus for ClC1=NSS2=C1N=C(c1ccco1)O2 (centres unmarked) , on Pythium ultimum, turned out to be 0.29 micrograms/cm^2

So the reported Pythium ultimum, micrograms/cm^2 for 99% control of the fungus for ClC1=NSS2=C1N=C(CI)O2 (centres unmarked) , on Pythium ultimum, turned out to be 0.12 micrograms/cm^2

So the reported Pythium ultimum, micrograms/cm^2 for 99% control of the fungus for ClC1=NSS2=C1N=C(c1cccs1)O2 (centres unmarked) , on Pythium ultimum, turned out to be > 1.7 micrograms/cm^2

The reported measurements were obtained from patent US4179441A.
